# measuredTarget: F508delCFTR (Homo sapiens, UniProt P13569, DEL508-508)
# Construct: expressed in transfected cells; host or cells: CFBE41o- human lung-derived epithelial cells (CFBE4lo-F508delCFTR-HRP), doxycycline-inducible
# Sequence (P13569 with tags, fused parts or gaps DEL508-508): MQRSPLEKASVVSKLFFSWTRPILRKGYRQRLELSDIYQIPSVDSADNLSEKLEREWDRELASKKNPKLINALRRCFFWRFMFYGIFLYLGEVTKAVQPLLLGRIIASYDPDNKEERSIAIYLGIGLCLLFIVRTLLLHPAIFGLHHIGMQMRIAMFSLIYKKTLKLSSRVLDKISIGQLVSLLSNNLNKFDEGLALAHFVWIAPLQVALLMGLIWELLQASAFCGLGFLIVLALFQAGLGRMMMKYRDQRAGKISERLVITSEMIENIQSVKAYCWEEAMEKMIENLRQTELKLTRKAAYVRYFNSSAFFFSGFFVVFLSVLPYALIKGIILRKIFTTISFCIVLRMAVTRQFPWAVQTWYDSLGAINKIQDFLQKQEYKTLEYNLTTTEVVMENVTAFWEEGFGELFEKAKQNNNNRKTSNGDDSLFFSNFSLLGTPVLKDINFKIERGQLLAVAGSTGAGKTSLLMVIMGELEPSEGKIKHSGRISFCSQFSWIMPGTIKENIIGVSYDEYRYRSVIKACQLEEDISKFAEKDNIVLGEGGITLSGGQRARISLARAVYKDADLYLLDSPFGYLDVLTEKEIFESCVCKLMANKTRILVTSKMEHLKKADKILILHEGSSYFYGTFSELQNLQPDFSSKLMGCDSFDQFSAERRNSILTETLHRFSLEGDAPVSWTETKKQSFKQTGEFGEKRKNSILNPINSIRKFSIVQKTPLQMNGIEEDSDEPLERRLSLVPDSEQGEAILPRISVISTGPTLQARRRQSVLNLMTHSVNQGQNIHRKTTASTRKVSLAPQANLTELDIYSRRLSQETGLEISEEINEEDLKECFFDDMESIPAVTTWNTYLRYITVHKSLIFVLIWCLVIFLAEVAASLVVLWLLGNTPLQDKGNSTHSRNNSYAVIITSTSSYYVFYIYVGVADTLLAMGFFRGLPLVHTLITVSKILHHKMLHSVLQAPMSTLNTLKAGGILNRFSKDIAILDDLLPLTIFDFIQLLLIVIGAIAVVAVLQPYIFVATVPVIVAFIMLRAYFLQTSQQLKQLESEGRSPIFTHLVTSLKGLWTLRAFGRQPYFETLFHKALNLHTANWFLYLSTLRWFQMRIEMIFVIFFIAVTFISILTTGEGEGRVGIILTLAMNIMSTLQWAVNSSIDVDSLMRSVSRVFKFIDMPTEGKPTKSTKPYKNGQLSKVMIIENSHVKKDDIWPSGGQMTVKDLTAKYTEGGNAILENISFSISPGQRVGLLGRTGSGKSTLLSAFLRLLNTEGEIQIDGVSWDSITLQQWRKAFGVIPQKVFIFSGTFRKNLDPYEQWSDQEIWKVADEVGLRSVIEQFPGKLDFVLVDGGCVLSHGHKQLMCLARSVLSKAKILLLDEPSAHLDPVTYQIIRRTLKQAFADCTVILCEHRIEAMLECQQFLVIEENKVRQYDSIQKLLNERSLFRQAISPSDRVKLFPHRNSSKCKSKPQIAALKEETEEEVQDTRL
# protocolText: Cell Surface Expression-Horse Radish Peroxidase (CSE-HRP) Assay;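 further: percent of the 2 µM on-plate positive control corrector response above DMSO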
# Type: cell-based
# runParameters: without co-corrector; maximum at any tested concentration, normalized to on-plate positive control; read-out: Maximum % activity (without co-corrector)
measurementName: Emax

molecule: COc1ccc(C(F)(F)F)cc1CN[C@H]1[C@H](C(C)(C)C)[C@@H](C(=O)O)N(C(=O)C2OC[C@@H]3CCC[C@H]23)[C@H]1c1ccccc1 (relative stereo) [Example I-108]
measuredTarget: F508delCFTR (Homo sapiens, UniProt P13569, DEL508-508)
Emax: 100 to 200%
//
molecule: COc1cc(C(F)(F)F)ccc1CN[C@H]1[C@H](C(C)(C)C)[C@@H](C(=O)O)N(C(=O)C2CCCCC2)[C@H]1c1ccccc1 [Example 8]
measuredTarget: F508delCFTR (Homo sapiens, UniProt P13569, DEL508-508)
Emax: 100 to 200%
//
molecule: COc1nc(C(C)(C)C)ccc1CN[C@H]1[C@H](C(C)(C)C)[C@@H](C(=O)O)N(C(=O)[C@H](C)c2ccccc2)[C@H]1c1ccccc1 [Example I-182]
measuredTarget: F508delCFTR (Homo sapiens, UniProt P13569, DEL508-508)
Emax: 100 to 200%
//
molecule: COc1ccc(C2(C)CCC2)cc1CN[C@H]1[C@H](C(C)(C)C)[C@@H](C(=O)O)N(C(=O)C2CCCCC2)[C@H]1c1cccnc1OC [Example I-238]
measuredTarget: F508delCFTR (Homo sapiens, UniProt P13569, DEL508-508)
Emax: > 200%
//
molecule: COc1ncc(C(C)(C)C)cc1N[C@H]1[C@H](C(C)(C)C)[C@@H](C(=O)O)N(C(=O)C2CCCCC2)[C@H]1c1ccccc1 [Example 55]
measuredTarget: F508delCFTR (Homo sapiens, UniProt P13569, DEL508-508)
Emax: < 100%

--- query ---
Fill in the blank: the reported Emax of COc1ccc(C(C)(C)C)cc1CN[C@H]1[C@H](C(C)(C)C)[C@@H](C(=O)O)N(C(=O)CC2(O)CCC2)[C@H]1c1ccccc1 [Example I-148] is ____. > 200%

----------
Quick list: Emax per entry.
# measuredTarget: F508delCFTR (Homo sapiens, UniProt P13569, DEL508-508)
# Construct: expressed in transfected cells; host or cells: CFBE41o- human lung-derived epithelial cells (CFBE4lo-F508delCFTR-HRP), doxycycline-inducible
# protocolText: Cell Surface Expression-Horse Radish Peroxidase (CSE-HRP) Assay;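 further: percent of the 2 µM on-plate positive control corrector response above DMSO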
# Assay type: cell-based
# runParameters: test compound without co-corrector; maximum at any tested concentration, normalized to on-plate positive control; read-out: Maximum % activity (without co-corrector)

Here's what some known entries look like.
compound: COc1nc(C(C)(C)C)ccc1CN[C@H]1[C@H](C(C)(C)C)[C@@H](C(=O)O)N(C(=O)OC(C)C)[C@H]1c1cccnc1N(C)C
measuredTarget: F508delCFTR (Homo sapiens, UniProt P13569, DEL508-508)
value: 100 to 200%

compound: COc1ccc(C(C)(C)C)cc1CN[C@H]1[C@H](C(C)(C)C)[C@@H](C(=O)O)N(C(=O)CC(C)C)[C@H]1c1ccccc1
measuredTarget: F508delCFTR (Homo sapiens, UniProt P13569, DEL508-508)
value: > 200%

compound: COc1ccc(C(C)(C)C)cc1CN[C@H]1[C@H](C(C)(C)C)[C@@H](C(=O)O)N(C(=O)C2CCC(O)(C(F)(F)F)CC2)[C@H]1c1cccnc1N(C)C (stereo partly drawn)
measuredTarget: F508delCFTR (Homo sapiens, UniProt P13569, DEL508-508)
value: 100 to 200%

--- query ---
Fill in the blank: the reported Emax of `COc1ccc(C(C)(C)C)cc1CN[C@H]1[C@H](C(C)(C)C)[C@@H](C(=O)O)N(C(=O)C2CC2)[C@H]1c1ccccc1` is ____. > 200%
